Assay read-out Ki on D(3) dopamine receptor (Homo sapiens, UniProt P35462); records merged from the literature.
Note to self: Ki under 5 nM means true (1), ties and anything higher get false (0).

Some entries whose results are on file:
compound	label
CC(C)(C)c1nc(N2CCN(CCCN3C(=O)COc4ccccc43)CC2)cc(C(F)(F)F)n1	false (0)
CCCN1CC[C@@H](c2ccc(NS(=O)(=O)c3ccc(O)cc3)cc2)C1	false (0)
CCCN1CC[C@@H](c2ccc(NS(=O)(=O)c3ccc(Cl)cc3)cc2)C1	true (1)
Cc1ccn(CCCCN2CCN(c3cc(C(C)C)nc(C(C)(C)C)n3)CC2)c(=O)n1.Cl	false (0)
CCCc1cc(N2CCN(CCC(C)Cn3cc(C)c(=O)[nH]c3=O)CC2)nc(C(C)(C)C)n1 (centres unmarked)	false (0)

Quick check: does "O=C(NCCCCN1CCN(c2cccc(Cl)c2Cl)CC1)N1CCN(c2ccccc2)CC1" have Ki under 5 nM?
true (1)

Quick check: does "CCCc1cc(N2CCN(CCCCn3cc(C(F)(F)F)c(=O)[nH]c3=O)CC2)nc(C(C)(C)C)n1" have Ki under 5 nM?
true (1)

Quick check: does "CC(C)(C)c1nc(N2CCN(CCCCn3cc(C(F)(F)F)c(=O)[nH]c3=O)CC2)cc(C(F)(F)F)n1" have Ki under 5 nM?
false (0)

Quick check: does "O=S(=O)(Nc1ccc([C@@H]2CCNC2)cc1)c1ccc(CCCF)cc1" have Ki under 5 nM?
false (0)

Quick check: does "C=CCN1CCN(c2ccc(OS(=O)(=O)c3ccc(C(C)C)cc3)cn2)CC1" have Ki under 5 nM?
false (0)

---

Assay read-out Ki on D(3) dopamine receptor (Homo sapiens, UniProt P35462); records merged from the literature.

Consider the reported Ki for these compounds:
compound	Ki
Cc1nc(N2CCN[C@@H](C)C2)ccc1NS(=O)(=O)c1ccc([C@@H](C)CF)cc1	< 10 nM
CCCN1CC(c2ccc(NS(=O)(=O)c3ccc(C(C)C(F)(F)F)cc3)cc2)C1 (centres unmarked)	5.75 nM
CCCN[C@H]1CCc2cc(NS(=O)(=O)c3ccc(N4CCOCC4)cc3)ccc2C1	13.9 nM
COCCc1cc(N2CCN(CC[C@H]3CC[C@H](NC(=O)[C@H]4CC[C@H](O)CC4)CC3)C[C@H]2C)nc(C(C)(C)C)n1	< 10 nM
CC(C)(C)c1nc(N2CCN(CCCCNC(=O)N3CCN(C4CC4)CC3)CC2)cc(C(F)(F)F)n1	12.8 nM
C[C@H]1CN(CC[C@H]2CC[C@@H](NC(=O)[C@H]3CC[C@H](O)CC3)CC2)CCN1c1cc(C(F)F)nc(C(C)(C)C)n1	< 10 nM
CC(C)c1ccc(S(=O)(=O)Nc2ccc([C@@H]3CCN(CCCF)C3)cc2)cc1	0.29 nM

Quick check: Ki on D(3) dopamine receptor (Homo sapiens, UniProt P35462), item "COCC(=O)N[C@H]1CC[C@H](CCN2CCN(c3noc4c(F)cc(F)cc34)CC2)CC1" ?
15.6 nM

---

Assay read-out Ki on D(3) dopamine receptor (Homo sapiens); records merged from the literature.
Give the value, in units of nM, as a plain number.

Consider the reported Ki for these molecules:
recordSmiles	target	resultUnit	Ki
CC(C)c1ccc(S(=O)(=O)Nc2cnc(N3CCNCC3)nc2)cc1	D(3) dopamine receptor (Homo sapiens)	nM	14.2
CCCN[C@H]1CCc2cc(NS(=O)(=O)c3ccc([C@@H](C)C(F)(F)F)cc3)ccc2C1	D(3) dopamine receptor (Homo sapiens)	nM	12.2
CCCN1CC[C@@H](c2ccc(NS(=O)(=O)c3ccc(Br)cc3F)cc2)C1	D(3) dopamine receptor (Homo sapiens)	nM	3.1

Consider the molecule shown here: "CCCN1CC(c2ccc(NS(=O)(=O)c3ccc(C(C)C)cc3)cc2)C1" What is its recorded Ki?
2.1

Consider the molecule shown here: "Cc1cc(N2CCN(CCCCNC(=O)N3CCC(n4c(=O)[nH]c5ccccc54)CC3)CC2)nc(C(C)(C)C)n1" What is its recorded Ki?
7.3

Consider the molecule shown here: "CC(C)c1ccc(S(=O)(=O)Nc2ccc([C@@H]3CCN(C)C3)cc2)cc1" What is its recorded Ki?
0.57

Consider the molecule shown here: "Cc1cn(CCCCN2CCN(c3cc(C(F)(F)F)nc(C(C)(C)C)n3)CC2)c(=O)nc1N(C)C.Cl" What is its recorded Ki?
3.44

Consider the molecule shown here: "C[C@@H](COc1nccc(O)n1)CN1CCN(c2cc(C3CCC3)nc(C(C)(C)C)n2)CC1" What is its recorded Ki?
11.2

---

Assay read-out Ki on D(3) dopamine receptor (Homo sapiens, UniProt P35462); records merged from the literature.
Give the value, in units of nM, as a plain number.

Consider the reported Ki for these molecules:
molecule	Ki (nM)
Cn1cnnc1SCCCN1CCN(c2cc(C3CCC3)nc(C(C)(C)C)n2)CC1	1.3
O=C(N[C@H]1CC[C@H](CCN2CCN(c3noc4ccncc34)CC2)CC1)c1ccc(F)cc1	97
CC(C)(C)c1nc(C2CCC2)cc(N2CCN(CCCCNC(=O)c3cccnc3)CC2)n1	1
CC(C)(C)c1nc(N2CCN(CCCCNC(=O)N3CCN(c4cccc(Cl)c4Cl)CC3)CC2)cc(C(F)(F)F)n1	24.6
COc1cccn(CCCCN2CCN(c3cc(C(F)(F)F)nc(C(C)(C)C)n3)CC2)c1=O	2.2
CC(C)(C)c1nc(N2CCN(CCCCNC(=O)N3CCC(c4ccc(Cl)cc4)CC3)CC2)cc(C(F)(F)F)n1	21.2
Cc1cc(N2CCN(CCCCNC(=O)N3CCN(S(=O)(=O)c4ccccc4)CC3)CC2)nc(C(C)(C)C)n1	31.9
Cc1cn(CCCCN2CCN(Cc3ccc(Cl)c(Cl)c3)CC2)c(=O)[nH]c1=O	18.1

Quick check: Ki on D(3) dopamine receptor (Homo sapiens, UniProt P35462), item "Cc1cn(CCCCN2CCN(c3ccc(F)cc3F)CC2)c(=O)[nH]c1=O" ?
25.7

Quick check: Ki on D(3) dopamine receptor (Homo sapiens, UniProt P35462), item "Cn1cnnc1SCCCN1CCN(c2cc(C(F)(F)F)nc(C3(C)CC3)n2)CC1" ?
22.1

Quick check: Ki on D(3) dopamine receptor (Homo sapiens, UniProt P35462), item "CC(C)(C)c1nc(N2CCN(CCCCNC(=O)C3CCN(Cc4ccccc4)CC3)CC2)cc(C(F)(F)F)n1" ?
35.6

Quick check: Ki on D(3) dopamine receptor (Homo sapiens, UniProt P35462), item CCCN1CC[C@@H](c2ccc(NS(=O)(=O)c3ccc(C4CC4(F)F)cc3)cc2)C1 (stereo partly shown) ?
0.44

Quick check: Ki on D(3) dopamine receptor (Homo sapiens, UniProt P35462), item "C=CCN1CC[C@@H](c2ccc(NS(=O)(=O)c3ccc(OC(F)(F)F)cc3)cc2)C1" ?
3.7

Quick check: Ki on D(3) dopamine receptor (Homo sapiens, UniProt P35462), item CC(C)c1ccc(S(=O)(=O)Nc2ccc(C3CCNC3)c(F)c2)cc1 (stereo not shown) ?
3.6

Quick check: Ki on D(3) dopamine receptor (Homo sapiens, UniProt P35462), item Cc1cn(CC(C)CCN2CCN(c3cc(C(F)(F)F)nc(C(C)(C)C)n3)CC2)c(=O)[nH]c1=O (stereo not shown) ?
3.24

---

Assay read-out Ki on D(3) dopamine receptor (Homo sapiens); records merged from the literature.
Give the value, in units of nM, as a plain number.

Consider the reported Ki for these molecules:
molecule	Ki [nM]
CCCN1CC[C@@H](c2ccc(NS(=O)(=O)c3ccc(OC)cc3)cc2)C1	3
Cn1cccc1-c1nnc(SCCCN2CCc3ccc(C(=O)c4ccccc4)cc3C2)n1C	10.7
Cn1c(SCCCN2CCc3ccc(C(=O)c4ccccc4)cc3C2)nnc1-c1ccccc1	8.6

Quick check: Ki on D(3) dopamine receptor (Homo sapiens), item CC(C)c1ccc(S(=O)(=O)Nc2ccc(C3CCN(Cc4ccccc4)C3)c(F)c2)cc1 (centres unmarked) ?
2.7

Quick check: Ki on D(3) dopamine receptor (Homo sapiens), item "CC(C)(C)c1nc(C2CC2)cc(N2CCN(CCCOc3nccc(O)n3)CC2)n1" ?
7.1

Quick check: Ki on D(3) dopamine receptor (Homo sapiens), item "CCCN1CC[C@@H](c2ccc(NS(=O)(=O)c3ccc(C4CCC4)cc3)cc2)C1" ?
0.32

---

pKi: −log10 of the molar value.
Assay read-out pKi on UniProtKB P35462; records merged from the literature.
Use 8 as the dividing line for pKi, with the line itself on the Condition met side and lower values as Condition not met.

Some entries whose results are on file:
recordSmiles	label
CC(C)(C)c1nc(N2CCN(CCCCn3cc(Cl)c(=O)[nH]c3=O)CC2)cc(C(F)(F)F)n1	Condition met
CCCNCc1cc2cc(NS(=O)(=O)c3ccc(C(C)C)cc3)ccc2[nH]1	Condition met
CC(=O)N[C@H]1CC[C@H](CCN2CCN(c3ncccc3Cl)CC2)CC1	Condition met
CC(C)(C)c1nc(C2CCCC2)cc(N2CCN(CC[C@H]3CC[C@H](NC(=O)[C@H]4CC[C@H](O)CC4)CC3)CC2)n1	Condition met
Cc1cnc(=O)n(CCCCN2CCN(c3cc(C(F)(F)F)nc(C(C)(C)C)n3)CC2)c1	Condition not met

Answer whether pKi of "Cc1ccc2[nH]c3c(c2c1)CN(C(=O)NCCCCN1CCN(c2cc(C(C)(C)C)nc(C)n2)CC1)CC3" is greater than or equal to 8.
Condition not met

Answer whether pKi of "Cc1cc(N2CCN(CCCCNC(=O)N3CCN(c4ccccc4)CC3)CC2)nc(C(F)(F)F)n1" is greater than or equal to 8.
Condition not met

Answer whether pKi of "CC(C)(C)c1cc(N2CCN(CCCCn3ccc(=O)[nH]c3=O)CC2)nc(C(C)(C)C)n1" is greater than or equal to 8.
Condition met

Answer whether pKi of "CCCc1cc(N2CCN(CCCCN3C(=O)CCc4c(OC)cccc43)CC2)nc(C(C)(C)C)n1" is greater than or equal to 8.
Condition met

Answer whether pKi of "CCCN1C[C@@H]2C[C@@H](c3ccc(NS(=O)(=O)c4ccc(N5CCCC5)cc4)cc3)[C@@H]2C1" is greater than or equal to 8.
Condition met

Answer whether pKi of "CC(C)(C)c1cc(N2CCN(CCCCNC(=O)N3CCc4[nH]c5ccccc5c4C3)CC2)cc(C(C)(C)C)c1" is greater than or equal to 8.
Condition not met

Answer whether pKi of "Cc1cccc(N2CCN(C(=O)NCCCCN3CCN(c4cc(C(F)(F)F)nc(C(C)(C)C)n4)CC3)CC2)c1" is greater than or equal to 8.
Condition not met

Answer whether pKi of "Cc1cn(CCCCN2CCN(c3cc(C4CC4)nc(C(C)(C)C)n3)CC2)c(=O)nc1O" is greater than or equal to 8.
Condition met

Answer whether pKi of "CCCN[C@H]1CCc2cc(NS(=O)(=O)c3ccc([C@H](C)C(F)(F)F)cc3)ccc2C1" is greater than or equal to 8.
Condition met
